Measured values drawn from patent US20240166686A1 for this set.

System: ddY mouse
testMethodNotes: Elevated plus-maze (EPM) test
Type: in vivo
measurementSetup: oral 1 mg/kg, 30 min before 5-min test, vs vehicle saline

[
  {
    "substance": "YHIEPV",
    "ratio of an open arm residence time": "increased"
  },
  {
    "substance": "SYLPPL",
    "ratio of an open arm residence time": "increased"
  }
]
